Target: SARS-CoV-2 Omicron BA.2.13 RBD (SARS-CoV-2 Omicron BA.2.13, L452M)
Experiment: BLI
Catalogue of Kd readings, one per entry.
Readout Label: Kd

>  <Binder>
R1-32 (antibody, V domains shown) VH: EVQLVESGAEVKKPGSSVKVSCKASGGTFSSYAISWVRQAPGQGLEWMGGIIPILGIANYAQKFQGRVTITADKSTSTAYMELSSLRSEDTAVYYCARENGYSGYGAAANFDLWGRGTLVTVSS VL: QSVLTQPPSVSGAPGQRVTISCTGSSSNIGAGYDVHWYQQLPGTAPKLLIYGNSNRPSGVPDRFSGSKSGTSASLAITGLQAEDEADYYCQSYDSSLSGSVFGGGTKLTVL

>  <Result>
> 55 nM

$$$$
>  <Binder>
C807 (antibody, V domains shown) VH: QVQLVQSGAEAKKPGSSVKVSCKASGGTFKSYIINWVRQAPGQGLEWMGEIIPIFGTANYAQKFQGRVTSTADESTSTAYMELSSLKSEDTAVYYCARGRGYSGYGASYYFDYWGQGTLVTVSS VL: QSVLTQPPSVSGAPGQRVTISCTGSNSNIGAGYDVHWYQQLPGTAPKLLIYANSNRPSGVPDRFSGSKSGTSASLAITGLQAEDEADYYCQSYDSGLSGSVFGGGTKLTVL

>  <Result>
< 2.1 nM

$$$$
>  <Binder>
C092 (antibody, V domains shown) VH: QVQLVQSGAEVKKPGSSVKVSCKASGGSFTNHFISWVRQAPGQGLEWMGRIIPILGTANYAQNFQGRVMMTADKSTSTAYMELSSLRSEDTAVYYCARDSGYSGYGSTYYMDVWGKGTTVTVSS VL: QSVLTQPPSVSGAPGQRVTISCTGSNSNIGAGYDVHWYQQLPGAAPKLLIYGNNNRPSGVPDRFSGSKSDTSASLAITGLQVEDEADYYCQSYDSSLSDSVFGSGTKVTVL

>  <Result>
< 2.1 nM

$$$$
